# target_entity: PD-L1 (Homo sapiens (Human), UniProt Q9NZQ7)
# Sequence (Q9NZQ7 19-290): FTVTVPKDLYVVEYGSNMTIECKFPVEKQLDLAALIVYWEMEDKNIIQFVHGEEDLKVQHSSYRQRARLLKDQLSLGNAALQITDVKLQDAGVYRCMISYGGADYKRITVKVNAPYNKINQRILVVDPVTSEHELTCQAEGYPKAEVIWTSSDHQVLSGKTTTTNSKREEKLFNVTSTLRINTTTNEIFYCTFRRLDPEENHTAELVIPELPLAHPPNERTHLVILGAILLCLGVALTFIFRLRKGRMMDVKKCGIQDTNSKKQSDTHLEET
# test_protocol: PD-L1 whole blood internalization assay
# condition_info: PD-L1 internalization in human whole blood, CD14+ cells, interferon γ, 24 hour
value_type: IC50 (nM)

Consider the reported IC50 for these compounds:
[[record]]
compound = "Cc1c(Nc2nc(C(F)F)nc3cc(CN4C[C@H](O)C[C@@H]4C)cnc23)cccc1-c1cccc(NC(=O)c2nc3c(n2C)CCN(CCC24CCC(C(=O)O)(CC2)C4)C3)c1Cl"
target_entity = "PD-L1 (Homo sapiens (Human), UniProt Q9NZQ7)"
number = 35

[[record]]
compound = "Cc1c(NC(=O)c2nc3c(n2C)CCN(C)C3)cccc1-c1cccc(NC(=O)c2nc3c(n2C)CCN(CC24CCC(C(=O)O)(CC2)C4)C3)c1Cl [Example 119, reference compound]"
target_entity = "PD-L1 (Homo sapiens (Human), UniProt Q9NZQ7)"
number = 178

[[record]]
compound = "Cc1c(NC(=O)c2nc3c(n2C)CCN(CCC24CCC(C(=O)O)(CC2)C4)C3)cccc1-c1cccc(Nc2nc(C(F)F)nc3cc(CN4CC[C@H](O)C4)cnc23)c1C"
target_entity = "PD-L1 (Homo sapiens (Human), UniProt Q9NZQ7)"
number = 57

[[record]]
compound = "Cc1c(Nc2nc(C(F)F)nc3cc(CN4CCCC4)cnc23)cccc1-c1cccc(NC(=O)c2nc3c(n2C)CCN(CCC24CCC(C(=O)O)(CC2)C4)C3)c1Cl"
target_entity = "PD-L1 (Homo sapiens (Human), UniProt Q9NZQ7)"
number = 16

[[record]]
compound = "Cc1c(NC(=O)c2nc3c(n2C)CCN(CC24CCC(C(=O)O)(CC2)C4)C3)cccc1-c1cccc(NC(=O)c2nc3c(n2C)CCN(C)C3)c1Cl"
target_entity = "PD-L1 (Homo sapiens (Human), UniProt Q9NZQ7)"
number = 149

[[record]]
compound = "CN1CCc2c(nc(C(=O)Nc3cccc(-c4cccc(NC(=O)c5nc6c(n5C)CCN(CC57CCC(C(=O)O)(CC5)C7)C6)c4Cl)c3Cl)n2C)C1"
target_entity = "PD-L1 (Homo sapiens (Human), UniProt Q9NZQ7)"
number = 97

[[record]]
compound = "Cc1c(Nc2nc(C(F)F)nc3cc(CN4C[C@@H](O)C[C@H]4C)cnc23)cccc1-c1cccc(NC(=O)c2nc3c(n2C)CCN(CCC24CCC(C(=O)O)(CC2)C4)C3)c1Cl"
target_entity = "PD-L1 (Homo sapiens (Human), UniProt Q9NZQ7)"
number = 30

[[record]]
compound = "Cc1c(Nc2nc(C(F)F)nc3cc(CN4CCC[C@H]4C)cnc23)cccc1-c1cccc(NC(=O)c2nc3c(n2C)CCN(CCC24CCC(C(=O)O)(CC2)C4)C3)c1Cl"
target_entity = "PD-L1 (Homo sapiens (Human), UniProt Q9NZQ7)"
number = 33

[[record]]
compound = "C[C@H](O)CN1CCc2c(nc(C(=O)Nc3cccc(-c4cccc(NC(=O)c5nc6c(n5C)CCN(CC57CCC(C(=O)O)(CC5)C7)C6)c4Cl)c3Cl)n2C)C1 [Example 181, reference compound]"
target_entity = "PD-L1 (Homo sapiens (Human), UniProt Q9NZQ7)"
number = 161


[P] CC(C)N1CCc2c(nc(C(=O)Nc3cccc(-c4cccc(NC(=O)c5nc6c(n5C)CCN(CC57CCC(C(=O)O)(CC5)C7)C6)c4Cl)c3Cl)n2C)C1 [Example 177, reference compound]
[Q] Cc1c(Nc2nc(C(F)F)nc3cc(CN4CC[C@](C)(O)C4)cnc23)cccc1-c1cccc(NC(=O)c2nc3c(n2C)CCN(CCC24CCC(C(=O)O)(CC2)C4)C3)c1Cl
Field: entry with larger IC50 (options P / Q ). Indicate which entry you chose by stating its label. P
(P: 185 nM, Q: 17 nM)

Origin of values: patent US11401279B2
